Assay: Inhibition of porcine kidney alpha-trehalase assessed as release of p-nitrophenol using p-nitrophenyl glycoside as substrate by spectrometric assay
Parameters: species or system Sus scrofa
Endpoint label: pIC50
Answer as the number alone; pIC50 is minus log10 of concentration in mol/L.

Sample `OC[C@H]1NC[C@@H](O)[C@@H]1O` — what was its pIC50? 5.32

----------
Experiment: Inhibition of yeast alpha-glucosidase assessed as release of p-nitrophenol using p-nitrophenyl glycoside as substrate by spectrometric assay
Set-up: species or system Saccharomyces cerevisiae
pIC50: −log10 of the molar value.
Tag: Met if measured pIC50 is not below 4, Not met if it is.

Worked cases, answers included:
OC[C@]1(c2c(F)c(F)c(F)c(F)c2F)NC[C@H](O)[C@H]1O :: Not met
OC[C@]1(c2cccc(F)c2)NC[C@H](O)[C@H]1O :: Met
COc1cccc([C@]2(CO)NC[C@@H](O)[C@@H]2O)c1 :: Met
OC[C@]1(c2ccc(F)cc2)NC[C@H](O)[C@H]1O :: Not met
COc1ccc([C@]2(CO)NC[C@@H](O)[C@@H]2O)cc1OC :: Not met
Cc1ccc([C@]2(CO)NC[C@@H](O)[C@@H]2O)cc1 :: Not met
OC[C@H]1NC[C@@H](O)[C@@H]1O :: Met
Cc1ccc([C@@]2(CO)NC[C@H](O)[C@H]2O)cc1 :: Met

Hi team, for `OC[C@@]1(c2ccc(F)cc2)NC[C@@H](O)[C@@H]1O` , is the recorded pIC50 at or above 4? Met

Hi team, for `OC[C@@]1(c2ccc(O)cc2)NC[C@@H](O)[C@@H]1O` , is the recorded pIC50 at or above 4? Met

Hi team, for `COc1ccc([C@@]2(CO)NC[C@H](O)[C@H]2O)cc1OC` , is the recorded pIC50 at or above 4? Met

Hi team, for `COc1cccc([C@@]2(CO)NC[C@H](O)[C@H]2O)c1` , is the recorded pIC50 at or above 4? Met

Hi team, for `OC[C@@]1(c2c(F)c(F)c(F)c(F)c2F)NC[C@@H](O)[C@@H]1O` , is the recorded pIC50 at or above 4? Not met

Hi team, for `OC[C@]1(c2ccc(O)cc2)NC[C@H](O)[C@H]1O` , is the recorded pIC50 at or above 4? Met

----------
inhibition listing for selected compounds.
System: Aspergillus niger
Assay: Inhibition of Aspergillus niger amyloglucosidase assessed as release of p-nitrophenol at 1000 uM using p-nitrophenyl glycoside as substrate by spectrometric assay relative to control
Your answer is read as %, so omit the unit and give the number.

Sample `OC[C@@]1(c2ccc(F)cc2)NC[C@@H](O)[C@@H]1O` — what was its inhibition? 0

Sample `Cc1ccc([C@]2(CO)NC[C@@H](O)[C@@H]2O)cc1` — what was its inhibition? 8.3

----------
Organism: Bos taurus
Assay: Inhibition of bovine liver beta-glucosidase assessed as release of p-nitrophenol at 1000 uM using p-nitrophenyl glycoside as substrate by spectrometric assay relative to control
Endpoint label: inhibition (%)
Your answer is read as %, so omit the unit and give the number.

// worked examples, inhibition included
OC[C@@]1(c2ccccc2)NC[C@@H](O)[C@@H]1O :: 29.6
COc1cccc([C@]2(CO)NC[C@@H](O)[C@@H]2O)c1 :: 30

We now examine a further compound.
Sample `COc1ccc([C@]2(CO)NC[C@@H](O)[C@@H]2O)cc1` — what was its inhibition? 33.5
